Reference for the values: patent US20190135834A1

Please respond with reported Emax for every item in the list.
experimental-system: Human AMPK α2ß2γ1 (Homo sapiens, UniProt O43741+P54646)
Construct: The full length cDNAs of human AMPK ß2 (NM_005399.3) and human AMPK α2 (NM_006252.3); The full length cDNAs of human AMPK ß2 (NM_005399.3); 6xHis (N); made in house; host or cells: Escherichia coli BL21 CodonPlus (DE3)-RIL
Sequence (P54646 whole entry): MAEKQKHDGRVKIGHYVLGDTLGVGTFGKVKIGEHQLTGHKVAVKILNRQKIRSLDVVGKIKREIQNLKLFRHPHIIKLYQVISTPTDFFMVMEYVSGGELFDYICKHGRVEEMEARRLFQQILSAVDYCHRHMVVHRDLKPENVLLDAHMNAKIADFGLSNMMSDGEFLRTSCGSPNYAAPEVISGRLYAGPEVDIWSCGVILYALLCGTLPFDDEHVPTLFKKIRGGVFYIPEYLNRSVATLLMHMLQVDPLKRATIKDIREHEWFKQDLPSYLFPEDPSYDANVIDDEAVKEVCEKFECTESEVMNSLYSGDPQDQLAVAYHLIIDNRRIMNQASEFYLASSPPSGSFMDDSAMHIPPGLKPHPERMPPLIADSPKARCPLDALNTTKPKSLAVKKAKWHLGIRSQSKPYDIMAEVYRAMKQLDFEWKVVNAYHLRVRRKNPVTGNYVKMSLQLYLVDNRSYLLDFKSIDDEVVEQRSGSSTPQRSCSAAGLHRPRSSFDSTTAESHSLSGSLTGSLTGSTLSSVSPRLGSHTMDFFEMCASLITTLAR
Sequence (O43741 whole entry): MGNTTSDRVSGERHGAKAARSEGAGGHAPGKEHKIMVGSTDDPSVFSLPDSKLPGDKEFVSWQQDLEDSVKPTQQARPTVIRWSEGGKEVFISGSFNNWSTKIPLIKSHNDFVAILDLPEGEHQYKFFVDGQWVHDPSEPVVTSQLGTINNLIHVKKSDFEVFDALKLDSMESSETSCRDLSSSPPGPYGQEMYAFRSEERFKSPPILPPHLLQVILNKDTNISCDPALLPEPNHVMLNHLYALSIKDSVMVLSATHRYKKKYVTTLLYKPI
Sequence (P54619 whole entry partner): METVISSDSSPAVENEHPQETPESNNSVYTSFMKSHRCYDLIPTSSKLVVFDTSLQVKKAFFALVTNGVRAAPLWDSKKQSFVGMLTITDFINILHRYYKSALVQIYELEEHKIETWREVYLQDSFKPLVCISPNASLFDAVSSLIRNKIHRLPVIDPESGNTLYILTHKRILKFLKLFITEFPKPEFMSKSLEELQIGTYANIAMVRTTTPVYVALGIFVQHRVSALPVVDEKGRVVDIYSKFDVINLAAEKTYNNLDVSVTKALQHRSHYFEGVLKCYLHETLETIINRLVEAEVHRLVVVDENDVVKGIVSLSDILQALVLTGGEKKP
assay-details: Test Example 2: evaluation of an activator for AMP-activated protein kinase (AMPK), LabChip mobility shift assay with CaMKK2-phosphorylated enzyme
Type: biochemical
study-conditions: relative to control (100%), read-out: Emax (maximum rate of increase in activity within the measurement range)
Procedure: The full length cDNAs of human AMPK ß2 (NM_005399.3) and human AMPK α2 (NM_006252.3) were inserted into the MCS1 and MCS2 of the pETDuet-1 vector to prepare a human AMPK ß2 and human AMPK α2 (6× His tag at the 5′ terminus) expressing plasmid. […] A conversion rate was calculated from the peak heights of the obtained substrate and product. […]
Enter your answer as a number in %; do not include the unit.

Input: // returns reported Emax for input O=C(COc1cc(F)c2c(c1)CCC2Nc1nc2nc(O[C@@H]3CO[C@H]4[C@@H]3OC[C@H]4O)[nH]c2cc1Cl)NCO (stereo partly drawn)
Output: 392

Input: // query: O[C@@H]1CO[C@H]2[C@@H]1OC[C@H]2Oc1nc2nc(NC3CCc4cc(-c5cnccn5)cc(F)c43)c(Cl)cc2[nH]1 (stereo partly drawn)
Output: 424

Input: Consider next the compound COCC1CC1c1cc(F)c2c(c1)CC[C@@H]2Nc1nc2nc(O[C@@H]3CO[C@H]4[C@@H]3OC[C@H]4O)[nH]c2cc1Cl (stereo partly drawn) in the same way.
Output: 557

Input: Next compound up: "Cc1cc(-c2cc(F)c3c(c2)CC[C@@H]3Nc2nc3nc(O[C@@H]4CO[C@H]5[C@@H]4OC[C@H]5O)[nH]c3cc2Cl)cnn1"
Output: 711

Input: Next compound: O[C@@H]1CO[C@H]2[C@@H]1OC[C@H]2Oc1nc2nc(NC3CCc4cc(OCC5(F)COC5)cc(F)c43)c(Cl)cc2[nH]1 (stereo partly drawn)
Output: 422

Input: What would you report for Cn1cccc(-c2cc(F)c3c(c2)CCC3Oc2nc3nc(O[C@@H]4CO[C@H]5[C@@H]4OC[C@H]5O)[nH]c3cc2Cl)c1=O (stereo partly drawn) ?
Output: 386

---

experimental-system: Human AMPK α2ß2γ1 (Homo sapiens, UniProt O43741+P54646)
Construct: The full length cDNAs of human AMPK ß2 (NM_005399.3) and human AMPK α2 (NM_006252.3); The full length cDNAs of human AMPK ß2 (NM_005399.3); 6xHis (N); made in house; host or cells: Escherichia coli BL21 CodonPlus (DE3)-RIL
assay-details: Test Example 2: evaluation of an activator for AMP-activated protein kinase (AMPK), LabChip mobility shift assay with CaMKK2-phosphorylated enzyme
Type: biochemical
study-conditions: FL-Peptide 7 substrate, 25° C., 2 hours
For each of the molecules below, state its EC150 (compound concentration showing 150% relative to the control (100%)).
The figure you give is taken to be in nM; do not add the unit.

Input: Can you share its EC150 (compound concentration showing 150% relative to the control (100%))? I mean this molecule: Cn1cc(-c2cc(F)c3c(c2)CCC3Nc2nc3nc(O[C@@H]4CO[C@H]5[C@@H]4OC[C@H]5O)[nH]c3cc2Cl)cn1 (stereo partly drawn)
Output: 5.6

Input: Then COCOCCOc1cc(F)c2c(c1)CCC2Nc1nc2nc(O[C@@H]3CO[C@H]4[C@@H]3OC[C@H]4O)[nH]c2cc1Cl (stereo partly drawn) ?
Output: 3.8

Input: Another molecule to look at: COC/C=C/c1cc(F)c2c(c1)CCC2Nc1nc2[nH]c(O[C@@H]3CO[C@H](CO)C3)nc2cc1Cl (stereo partly drawn)
Output: 25
